Item-by-item account of growth
# Test system: RPMI-8226 leukemia
# Experiment description: NCI-60 one-dose screen, 48 h (100 = growth as untreated, 0 = no growth, -100 = all killed)
# Setup conditions: 10 µM
The panel holds about 83,000 compounds, 20% with a hit somewhere; the sample as a whole holds those more often. Calls of active or inactive are those of the source. Rule for the calls: active = growth percent below 10; inactive = the rest.

{"columns": ["Compound", "growth"],
 "data": [
  ["NS(=O)(=O)c1ccc(N2N=C(c3ccc(-c4ccccc4)cc3)CC2c2ccc(Cl)cc2)cc1 (centres undefined)", "63.4% (inactive)"],
  ["CC1=CSC2=NC(c3ccc(Cl)c(Cl)c3)=CC(c3ccc(Cl)cc3)N12 (centres undefined)", "82.3% (inactive)"],
  ["O=C(Nc1ccc(OS(=O)(=O)Cc2ccccc2)cc1)C12CC3CC(CC(C3)C1)C2", "35% (inactive)"],
  ["COc1ccc(-c2cc(/C=C3\\C(=O)Nc4cc(Cl)ccc43)[nH]n2)cc1", "19.7% (inactive)"]
]}

Origin of measurements: PubChem BioAssay (NCI)
